# Tested on: Nucleic Acid
# Assay Remarks: Binding affinity to salmon sperm DNA assessed as change in melting temperature at 10 uM under low salt concentration by spectrophotometry
# Type: nucleic-acid assay
# Experimental Conditions: Salmonidae
# Lookup of reported ΔTm keyed by entry
Give a bare numeral; the unit °C is implied.

Below are worked cases with known answers.
| Chemical Structure | ΔTm, °C |
| --- | --- |
| COc1ccc2c(c1)c(=O)c1c(NCCc3ccccc3)ccc3nnn2c31 | 1.7 |
| CN(C)CCNc1ccc2nnn3c4ccc(Br)cc4c(=O)c1c23 | 2.6 |
| C[N+](C)([O-])CCNc1ccc2nnn3c4ccc(Br)cc4c(=O)c1c23 | 0.1 |

Prompt: Returns the measured ΔTm for the input compound. Input: CC(C)CCNc1ccc2nnn3c4ccccc4c(=O)c1c23
Response: 2

Prompt: Fill blank: measured ΔTm of the compound O=c1c2ccccc2n2nnc3ccc(NCCCO)c1c32 is ____.
Response: 3

Prompt: Value lookup for ΔTm; key = COc1ccc2c(c1)c(=O)c1c(NCCCO)ccc3nnn2c31
Response: 3.2

Prompt: Suppose we examine the compound COc1ccc2c(c1)c(=O)c1c(NCCN(C)C)ccc3nnn2c31 ; what ΔTm value has been reported?
Response: 2.9

Prompt: Recorded ΔTm for COc1ccc(Nc2ccc3nnn4c5ccccc5c(=O)c2c34)cc1 , please?
Response: 0.2

Prompt: What value of ΔTm has been reported for the following compound? C[N+](C)([O-])CCNc1ccc2nnn3c4ccccc4c(=O)c1c23
Response: 0.5

Prompt: Consider the compound O=c1c2cc(Br)ccc2n2nnc3ccc(NCCCO)c1c32 and give its measured ΔTm.
Response: 3

Prompt: Reported ΔTm, compound CC(C)CCNc1ccc2nnn3c4ccc(Br)cc4c(=O)c1c23 : ____
Response: 1.9
